ASSAY_REMARKS: Stability assay in 25% TIDE 2X detergent with DTPA (residual Abz-AGLA-Nba protease activity)
Assay type: physicochemical
RUN_CONDITIONS: 60 min at 32°C; variant residual AGLA activity divided by wild-type residual activity
ASSAY_READOUT: PI (relative stability), 25% TIDE 2X with DTPA
Answers are plain numbers.

Known PI (relative stability), 25% TIDE 2X with DTPA results, listed for orientation:
Q128C: single-substitution thermolysin variant (SEQ ID NO:3 numbering) (protein, listed as Geobacillus caldoproteolyticus) ITGTSTVGVGRGVLGDQKNINTTYSTYYYLQDNTRGNGIFTYDAKYRTTLPGSLWADADNQFFASYDAPAVDAHYYAGVTYDYYKNVHNRLSYDGNNAAIRSSVHYSQGYNNAFWNGSQMVYGDGDGCTFIPLSGGIDVVAHELTHAVTDYTAGLIYQNESGAINEAISDIFGTLVEFYANKNPDWEIGEDVYTPGISGDSLRSMSDPAKYGDPDHYSKRYTGTQDNGGVHINSGIINKAAYLISQGGTHYGVSVVGIGRDKLGKIFYRALTQYLTPTSNFSQLRAAAVQSATDLYGSTSQEVASVKQAFDAVGVK	1.01
Q273Y: single-substitution thermolysin variant (SEQ ID NO:3 numbering) (protein, listed as Geobacillus caldoproteolyticus) ITGTSTVGVGRGVLGDQKNINTTYSTYYYLQDNTRGNGIFTYDAKYRTTLPGSLWADADNQFFASYDAPAVDAHYYAGVTYDYYKNVHNRLSYDGNNAAIRSSVHYSQGYNNAFWNGSQMVYGDGDGQTFIPLSGGIDVVAHELTHAVTDYTAGLIYQNESGAINEAISDIFGTLVEFYANKNPDWEIGEDVYTPGISGDSLRSMSDPAKYGDPDHYSKRYTGTQDNGGVHINSGIINKAAYLISQGGTHYGVSVVGIGRDKLGKIFYRALTYYLTPTSNFSQLRAAAVQSATDLYGSTSQEVASVKQAFDAVGVK	1.05
Q128V: single-substitution thermolysin variant (SEQ ID NO:3 numbering) (protein, listed as Geobacillus caldoproteolyticus) ITGTSTVGVGRGVLGDQKNINTTYSTYYYLQDNTRGNGIFTYDAKYRTTLPGSLWADADNQFFASYDAPAVDAHYYAGVTYDYYKNVHNRLSYDGNNAAIRSSVHYSQGYNNAFWNGSQMVYGDGDGVTFIPLSGGIDVVAHELTHAVTDYTAGLIYQNESGAINEAISDIFGTLVEFYANKNPDWEIGEDVYTPGISGDSLRSMSDPAKYGDPDHYSKRYTGTQDNGGVHINSGIINKAAYLISQGGTHYGVSVVGIGRDKLGKIFYRALTQYLTPTSNFSQLRAAAVQSATDLYGSTSQEVASVKQAFDAVGVK	1.45

Here is another molecule to look at.
# lookup: PI (relative stability), 25% TIDE 2X with DTPA of T049N: single-substitution thermolysin variant (SEQ ID NO:3 numbering) (protein, listed as Geobacillus caldoproteolyticus) ITGTSTVGVGRGVLGDQKNINTTYSTYYYLQDNTRGNGIFTYDAKYRTNLPGSLWADADNQFFASYDAPAVDAHYYAGVTYDYYKNVHNRLSYDGNNAAIRSSVHYSQGYNNAFWNGSQMVYGDGDGQTFIPLSGGIDVVAHELTHAVTDYTAGLIYQNESGAINEAISDIFGTLVEFYANKNPDWEIGEDVYTPGISGDSLRSMSDPAKYGDPDHYSKRYTGTQDNGGVHINSGIINKAAYLISQGGTHYGVSVVGIGRDKLGKIFYRALTQYLTPTSNFSQLRAAAVQSATDLYGSTSQEVASVKQAFDAVGVK
1.03
